target: human mature TGFβ3 (Homo sapiens, UniProt P10600); experiment: cell-based or functional assay
Sequence (P10600 301-412): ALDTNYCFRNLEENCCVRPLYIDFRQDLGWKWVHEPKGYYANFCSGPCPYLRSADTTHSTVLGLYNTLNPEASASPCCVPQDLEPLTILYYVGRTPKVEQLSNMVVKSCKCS
Recorded endpoint: TGFβ inhibition by HEK-Blue cells (IC50: nM), TGFb3; Blocking: Complete
Number first, unit second.

IN: Looking for the measured TGFβ inhibition by HEK-Blue cells (IC50: nM), TGFb3; Blocking: Complete of rabbit monoclonal antibody 4A11 (antibody, V domains shown, VH of rbt4A11; VL of rbt4A11; Parental rabbit antibody; also called rbt4A11) VH: QSLEESGGRLVTPGTPLTLTCTVSGFSLSSYTVNWVRQAPGKGLEWIGYISYGGSAYYASWANGRFTISKTSATVDLKITSPTTEDTATYFCARHMQVGGAPTGSMAAFDPWGPGTLVTVSS VL: AAVLTQTPSPVSAAVGGTVSISCQSSQSVYNNNYLSWFQQKPGQPPKLLIYGASTLTSGVPSRFKGSGSGTQFTLTISDVQCDDAATYYCAGGYSGSSDKYAFGGGTEVVVK , can you help?
OUT: 0.1 nM
